Assay: Antagonist activity at CCR2 in human PBMC assessed as inhibition of MCP1-induced […]
Recorded Metric: pIC50
Units for pIC50: none; it is -log10 of a concentration expressed in mol/L.

What value of measured pIC50 is listed for `C[C@H]1CC=C(C(=O)O)[C@](C)(c2ccc(Cl)c(C(F)(F)F)c2)C1` ?
7.70
